molecular target: Adrenergic β2 (Homo sapiens); construct: Adherent H292 cells were removed from tissue culture flasks; endogenous in cells; host or cells: H292 cells; test: Adrenergic β2 mediated cAMP production in H292 cells (AlphaScreen cAMP detection); format: cell-based; parameters: key: fraction of formoterol maximum activity (formoterol = 1); details: Intrinsic Activity as a fraction relative to the maximum activity determined for formoterol
Sequence (P07550 whole entry): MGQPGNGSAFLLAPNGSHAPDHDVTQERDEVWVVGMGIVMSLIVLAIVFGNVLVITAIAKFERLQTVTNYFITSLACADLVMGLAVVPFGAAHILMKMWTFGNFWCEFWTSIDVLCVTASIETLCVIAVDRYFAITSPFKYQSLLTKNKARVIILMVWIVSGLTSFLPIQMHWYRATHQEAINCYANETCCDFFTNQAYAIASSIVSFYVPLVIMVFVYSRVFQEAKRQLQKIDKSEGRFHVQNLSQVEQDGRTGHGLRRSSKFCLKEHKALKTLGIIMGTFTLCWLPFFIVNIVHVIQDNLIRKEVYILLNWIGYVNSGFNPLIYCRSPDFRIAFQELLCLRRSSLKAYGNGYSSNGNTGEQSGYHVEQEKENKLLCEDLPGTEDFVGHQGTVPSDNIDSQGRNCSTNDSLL
Threshold rule: β2 Int Act greater than or equal to 0.9 is T; below that, F.

Query: Please check the record O=C(CCNCCc1ccc(F)c(F)c1)N(CCNCCc1ccc(O)c2[nH]c(=O)ccc12)C1CCCCC1 [Example 16, bis(trifluoroacetate)] and state if its β2 Int Act is at or above 0.9.
Response: F

Query: Would you kindly repeat that for CCCC[C@@H](C)N(CCNCCc1ccc(O)c2c1OCC(=O)N2)C(=O)CCNCCc1ccc(F)c(F)c1 [Example 52, bis(trifluoroacetate)] ?
Response: T

Query: Would you kindly repeat that for O=C1COc2c(CCNCCN(C(=O)CCNCCc3ccc(Cl)cc3)C3CCCCC3)ccc(O)c2N1 [Example 32, bis(trifluoroacetate)] ?
Response: T

Query: Would you kindly repeat that for O=C1COc2c(CCNCCN(C(=O)CCNCCc3ccc(C(=O)O)cc3)C3CCCCC3)ccc(O)c2N1 [Example 43, bis(trifluoroacetate)] ?
Response: T

====

biological target: recombinant human adrenergic beta 1 receptors (Homo sapiens, UniProt P08588); construct: purchased Euroscreen; assay: Adrenergic β1 selectivity assay, [125I]-Iodocyanopindolol binding to membranes; details: inhibition of [125I]-Iodocyanopindolol binding, read-out: β1 bind pIC50 (converted)
Sequence (P08588 whole entry): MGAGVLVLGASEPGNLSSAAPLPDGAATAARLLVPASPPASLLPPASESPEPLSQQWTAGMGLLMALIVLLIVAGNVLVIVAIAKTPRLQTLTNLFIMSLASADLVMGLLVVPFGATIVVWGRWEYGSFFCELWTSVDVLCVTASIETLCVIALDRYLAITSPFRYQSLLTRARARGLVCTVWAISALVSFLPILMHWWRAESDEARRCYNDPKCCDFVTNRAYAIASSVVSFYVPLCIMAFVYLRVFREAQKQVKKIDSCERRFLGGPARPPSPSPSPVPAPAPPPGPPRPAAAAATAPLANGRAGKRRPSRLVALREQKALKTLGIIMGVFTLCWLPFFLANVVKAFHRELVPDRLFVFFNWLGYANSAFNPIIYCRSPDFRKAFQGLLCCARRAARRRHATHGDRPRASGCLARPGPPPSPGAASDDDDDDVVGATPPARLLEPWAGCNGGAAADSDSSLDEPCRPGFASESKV
Observed Property: IC50 (µM)
Form entry: value (µM) — number only.

Query: Request the reported IC50 associated with CCCC[C@@H](C)N(CCNCCc1ccc(O)c2c1OCC(=O)N2)C(=O)CCNCCc1ccc(F)c(C)c1 [Example 47, bis(trifluoroacetate)]
Response: 0.631

Query: Would you kindly repeat that for O=C1COc2c(CCNCCN(C(=O)CCNCCc3ccccc3)C3CCCCC3)ccc(O)c2N1 [Example 23, bis(trifluoroacetate)] ?
Response: 0.631

Query: Would you kindly repeat that for O=C1COc2c(CCNCCN(C(=O)CCNCCc3ccc(Cl)c(Cl)c3)C3CCCCC3)ccc(O)c2N1 [Example 30, bis(trifluoroacetate)] ?
Response: 2.51

Query: Would you kindly repeat that for CCCC[C@@H](C)N(CCNCCc1ccc(O)c2c1OCC(=O)N2)C(=O)CCNCCc1cc(F)cc(F)c1 [Example 51, bis(trifluoroacetate)] ?
Response: 2

====

Exercise: state measured IC50 for each of the compounds provided.
biological target: recombinant human α1D receptor (Homo sapiens); construct: expressed in transfected cells; host or cells: human embryonic kidney 293 cells (HEK93 [sic]), membranes; assay: Adrenergic α1D selectivity assay, [3H]-prazosin binding to membranes; details: inhibition of [3H]-prazosin binding, HEK cell membranes, read-out: α1 bind pIC50 (converted)
Sequence (P25100 whole entry): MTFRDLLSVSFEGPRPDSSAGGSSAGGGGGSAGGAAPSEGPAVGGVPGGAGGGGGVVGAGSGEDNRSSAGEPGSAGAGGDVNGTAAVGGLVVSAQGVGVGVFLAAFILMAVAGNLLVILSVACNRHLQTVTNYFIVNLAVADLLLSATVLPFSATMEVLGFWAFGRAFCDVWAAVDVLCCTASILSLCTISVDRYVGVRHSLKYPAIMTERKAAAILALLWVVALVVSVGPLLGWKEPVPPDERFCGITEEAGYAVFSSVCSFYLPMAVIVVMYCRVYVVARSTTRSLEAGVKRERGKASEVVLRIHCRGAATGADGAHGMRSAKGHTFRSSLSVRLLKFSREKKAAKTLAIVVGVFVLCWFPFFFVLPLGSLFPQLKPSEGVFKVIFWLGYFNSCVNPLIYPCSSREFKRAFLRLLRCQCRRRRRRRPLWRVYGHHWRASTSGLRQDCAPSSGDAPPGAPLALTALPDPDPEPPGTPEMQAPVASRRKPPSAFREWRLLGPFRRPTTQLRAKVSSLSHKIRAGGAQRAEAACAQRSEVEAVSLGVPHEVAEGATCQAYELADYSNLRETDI
Where a name gives a salt, the structure may show the parent alone.
Form entry: value (nM) — number only.

Query: Request the reported IC50 associated with O=C1COc2c(CCNCCN(C(=O)CCNCCc3ccc(F)c(Cl)c3)C3CCCCC3)ccc(O)c2N1 [Example 37, bis(trifluoroacetate)]
Response: 158

Query: Would you kindly repeat that for O=C1COc2c(CCNCCN(C(=O)CCNCCc3ccc(Cl)cc3Cl)C3CCCCC3)ccc(O)c2N1 [Example 31, bis(trifluoroacetate)] ?
Response: 158

Query: Would you kindly repeat that for O=C1COc2c(CCNCCN(C(=O)CCOCCc3cccc(F)c3)C3CCCCC3)ccc(O)c2N1 [Example 74, trifluoroacetate] ?
Response: 794

Query: Would you kindly repeat that for O=C1COc2c(CCNCCN(C(=O)CCNCCc3ccc(F)c(F)c3)C3CCCCC3)ccc(O)c2N1 [Example 42, bis(trifluoroacetate)] ?
Response: 200

Query: Would you kindly repeat that for O=C(CCNCCc1ccc(Cl)cc1)N(CCNCCc1ccc(O)c2[nH]c(=O)ccc12)C1CCCCC1 [Example 14, bis(trifluoroacetate)] ?
Response: 501

Query: Would you kindly repeat that for CC[C@@H](C)N(CCNCCc1ccc(O)c2c1OCC(=O)N2)C(=O)CCNCCc1ccc(Cl)c(Cl)c1 [Example 58, dihydrochloride] ?
Response: 100
